The measured values listed here are drawn from paper PMC3817407.

Molecular target: T1, ECF33_423
T1 chain: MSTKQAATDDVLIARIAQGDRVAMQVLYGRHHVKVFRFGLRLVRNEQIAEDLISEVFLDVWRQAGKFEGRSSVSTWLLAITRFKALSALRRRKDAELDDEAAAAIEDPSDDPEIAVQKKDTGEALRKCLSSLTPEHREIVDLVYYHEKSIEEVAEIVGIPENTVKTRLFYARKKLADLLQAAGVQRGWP
parameter_measured: fold repression

binder	readout_value
AS25_1645 (protein) MNESFSQRQTDGDRRRGGDLEMKKNHTSHQHHTDSETPMGHNFEQFQRLSAYFDGEATPAERKEIQHLLDTDPQVKQQYQQLRQLKQALQLLPIPTSISAQYLGQRVLARLRRSQLRTLSLWGSGAIAALFVAGVMGQMPRLNFDRFAKNDPDQQPTAALVETSPQGEEALVVALNRPVLQIPKLATTESP	4.92

Consider the additional binder presented here.
Task item: Bench note: what fold repression did AS20_992 (protein) MTPERFVHLADAYGADLQRWPSAERAAAQALLDCGDAQAVAALRQAHWLDSQLDRYQVPAPSPALAQRIIAAAQQPGAPFWSRYAGWLASLGWVGVGLTGVAAGMLAVALSLPLSTSAEALPSVFDQSDAEFVLSINAEEAEQ show?
Reply: 1.32
